# System: tet operator sequence
# experiment: β-galactosidase activity of a tetracycline-regulated promoter in transformed E. coli with revTetR, in the presence and absence of anhydrotetracycline (atc)
# Assay type: cell-based, Escherichia coli
# stated.conditions: RevTetR isolate cultured in the absence of anhydrotetracycline (ATC)
β-Galactosidase Activity, Cultured Without ATC values for the molecules below.
Respond using a number only.

# example entries with known answers
{"molecule": "TetRrevAtc4-43: revTetR(BD) L52V A56V V57L I59T A61S (protein, Modified tetracycline repressor, revTetR(BD) L52V A56V V57L I59T A61S) MSRLDKSKVINSALELLNEVGIEGLTTRKLAQKLGVEQPTLYWHVKNKRALVDALVLETLSRHHDYSLPAAGESWQSFLRNNAMSFRRALLRYRDGAKVHLGTRPDEKQYDTVETQLRFMTENGFSLRDGLYAISAVSHFTLGAVLEQQEHTAALTDRPAAPDENLPPLLREALQIMDSDDGEQAFLHGLESLIRGFEVQLTALLQIV", "measured": 99.61}
{"molecule": "TetRrev6-27: revTetR(BD) A71T G96E (protein, Modified tetracycline repressor, revTetR(BD) A71T G96E) MSRLDKSKVINSALELLNEVGIEGLTTRKLAQKLGVEQPTLYWHVKNKRALLDALAVEILARHHDYSLPATGESWQSFLRNNAMSFRRALLRYRDEAKVHLGTRPDEKQYDTVETQLRFMTENGFSLRDGLYAISAVSHFTLGAVLEQQEHTAALTDRPAAPDENLPPLLREALQIMDSDDGEQAFLHGLESLIRGFEVQLTALLQIV", "measured": 108.105}
{"molecule": "TetRrev6-38: revTetR(BD) Y93H G96W K98Q V99G (protein, Modified tetracycline repressor, revTetR(BD) Y93H G96W K98Q V99G) MSRLDKSKVINSALELLNEVGIEGLTTRKLAQKLGVEQPTLYWHVKNKRALLDALAVEILARHHDYSLPAAGESWQSFLRNNAMSFRRALLRHRDWAQGHLGTRPDEKQYDTVETQLRFMTENGFSLRDGLYAISAVSHFTLGAVLEQQEHTAALTDRPAAPDENLPPLLREALQIMDSDDGEQAFLHGLESLIRGFEVQLTALLQIV", "measured": 96.194}

Respond only with β-Galactosidase Activity, Cultured Without ATC recorded for TetRrevAF1/7: revTetR(BD) G96R L101I (protein, Modified tetracycline repressor, revTetR(BD) G96R L101I) MSRLDKSKVINSALELLNEVGIEGLTTRKLAQKLGVEQPTLYWHVKNKRALLDALAVEILARHHDYSLPAAGESWQSFLRNNAMSFRRALLRYRDRAKVHIGTRPDEKQYDTVETQLRFMTENGFSLRDGLYAISAVSHFTLGAVLEQQEHTAALTDRPAAPDENLPPLLREALQIMDSDDGEQAFLHGLESLIRGFEVQLTALLQIV
72.199
